AC50 values for the compounds below.
tested-on: Sodium channel protein type 5 subunit alpha (Homo sapiens, UniProt Q14524)
Sequence (Q14524 whole entry): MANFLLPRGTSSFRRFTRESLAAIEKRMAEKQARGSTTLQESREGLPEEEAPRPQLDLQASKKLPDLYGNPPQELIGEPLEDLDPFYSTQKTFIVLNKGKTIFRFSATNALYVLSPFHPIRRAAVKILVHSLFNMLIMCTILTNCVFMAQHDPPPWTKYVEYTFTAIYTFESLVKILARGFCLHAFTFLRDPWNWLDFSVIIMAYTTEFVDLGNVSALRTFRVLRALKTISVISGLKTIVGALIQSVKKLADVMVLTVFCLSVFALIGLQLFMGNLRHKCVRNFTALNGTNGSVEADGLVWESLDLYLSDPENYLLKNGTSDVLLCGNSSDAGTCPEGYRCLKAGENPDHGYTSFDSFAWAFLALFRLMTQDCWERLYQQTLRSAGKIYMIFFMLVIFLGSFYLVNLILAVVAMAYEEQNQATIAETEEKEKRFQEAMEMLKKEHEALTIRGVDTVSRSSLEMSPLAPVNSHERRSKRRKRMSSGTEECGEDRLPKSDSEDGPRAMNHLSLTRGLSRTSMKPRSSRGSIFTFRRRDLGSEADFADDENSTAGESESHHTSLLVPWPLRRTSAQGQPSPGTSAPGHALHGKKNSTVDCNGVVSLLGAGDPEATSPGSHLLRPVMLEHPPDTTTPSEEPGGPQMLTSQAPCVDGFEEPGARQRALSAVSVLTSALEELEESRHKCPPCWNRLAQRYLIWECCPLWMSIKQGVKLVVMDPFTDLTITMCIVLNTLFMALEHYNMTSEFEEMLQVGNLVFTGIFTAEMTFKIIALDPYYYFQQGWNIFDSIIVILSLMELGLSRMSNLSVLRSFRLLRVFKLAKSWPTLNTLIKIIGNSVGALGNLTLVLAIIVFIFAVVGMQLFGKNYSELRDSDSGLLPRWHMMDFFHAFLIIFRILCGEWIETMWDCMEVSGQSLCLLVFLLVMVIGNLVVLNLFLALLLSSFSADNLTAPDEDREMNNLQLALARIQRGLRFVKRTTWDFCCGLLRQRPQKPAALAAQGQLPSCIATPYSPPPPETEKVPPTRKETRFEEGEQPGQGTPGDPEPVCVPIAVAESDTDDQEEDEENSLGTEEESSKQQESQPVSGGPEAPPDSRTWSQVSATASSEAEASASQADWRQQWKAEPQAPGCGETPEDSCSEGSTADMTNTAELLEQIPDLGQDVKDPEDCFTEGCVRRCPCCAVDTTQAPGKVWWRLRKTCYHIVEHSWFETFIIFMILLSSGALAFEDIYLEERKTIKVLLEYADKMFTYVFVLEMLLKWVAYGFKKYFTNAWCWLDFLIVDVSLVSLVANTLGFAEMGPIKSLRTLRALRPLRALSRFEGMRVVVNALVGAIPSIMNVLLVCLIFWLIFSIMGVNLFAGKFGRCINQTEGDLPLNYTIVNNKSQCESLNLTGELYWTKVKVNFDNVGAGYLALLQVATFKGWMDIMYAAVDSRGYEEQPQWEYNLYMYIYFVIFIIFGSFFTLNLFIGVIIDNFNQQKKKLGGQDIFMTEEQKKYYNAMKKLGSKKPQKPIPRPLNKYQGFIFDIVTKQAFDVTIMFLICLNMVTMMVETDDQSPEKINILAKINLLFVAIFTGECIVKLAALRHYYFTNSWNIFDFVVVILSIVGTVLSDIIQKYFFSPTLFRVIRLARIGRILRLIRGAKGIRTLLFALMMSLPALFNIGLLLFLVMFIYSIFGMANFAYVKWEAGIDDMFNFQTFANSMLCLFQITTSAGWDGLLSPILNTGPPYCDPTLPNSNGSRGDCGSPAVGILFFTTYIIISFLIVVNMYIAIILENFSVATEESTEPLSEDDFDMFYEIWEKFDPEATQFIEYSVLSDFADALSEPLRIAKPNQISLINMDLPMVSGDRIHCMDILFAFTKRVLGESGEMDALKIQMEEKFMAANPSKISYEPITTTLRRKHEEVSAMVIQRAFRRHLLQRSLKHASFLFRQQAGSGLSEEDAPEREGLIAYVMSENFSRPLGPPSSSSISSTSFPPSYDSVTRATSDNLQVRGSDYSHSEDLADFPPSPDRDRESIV
Format: functional, cell-based

Supply measured AC50 of CCCCCCCCNC(C)C(O)c1ccc(SC(C)C)cc1 (stereo not drawn) in your reply.
7.7 µM

Recall and state the measured AC50 for "COC(=O)N[C@@H](C)CNc1nccc(-c2cn(C(C)C)nc2-c2cc(Cl)cc(NS(C)(=O)=O)c2F)n1" .
> 30 µM

Answer with the recorded AC50 of "Cc1ccc(NC(=O)C2(c3ccc4c(c3)OC(F)(F)O4)CC2)nc1-c1cccc(C(=O)O)c1" only.
> 50 µM

* * *

tested-on: Alpha-2A adrenergic receptor (Homo sapiens, UniProt P08913)
Sequence (P08913 whole entry): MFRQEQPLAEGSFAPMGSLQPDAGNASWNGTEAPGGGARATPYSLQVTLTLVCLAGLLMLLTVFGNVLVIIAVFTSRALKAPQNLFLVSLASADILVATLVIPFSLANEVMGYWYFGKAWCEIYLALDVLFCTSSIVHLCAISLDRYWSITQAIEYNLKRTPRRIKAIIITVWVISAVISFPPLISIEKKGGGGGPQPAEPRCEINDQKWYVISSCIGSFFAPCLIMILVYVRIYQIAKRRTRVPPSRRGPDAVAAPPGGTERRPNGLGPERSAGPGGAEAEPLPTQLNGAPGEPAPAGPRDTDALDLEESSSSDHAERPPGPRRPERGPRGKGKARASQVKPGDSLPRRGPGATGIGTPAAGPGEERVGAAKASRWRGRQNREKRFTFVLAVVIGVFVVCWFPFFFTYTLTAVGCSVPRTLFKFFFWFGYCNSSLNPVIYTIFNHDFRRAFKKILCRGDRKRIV
Assay type: functional, cell-based
attribute-measured: AC50

N=C(N)c1ccc2cc(OC(=O)c3ccc(N=C(N)N)cc3)ccc2c1 [NAFAMOSTAT]	> 30 µM
Cc1cc(CC(=O)O)n(C)c1C(=O)c1ccc(Cl)cc1 [ZOMEPIRAC]	> 30 µM
C=CC1=C(C(=O)O)N2C(=O)[C@@H](NC(=O)/C(=N\OCC(=O)O)c3csc(N)n3)[C@H]2SC1 [CEFIXIME]	> 30 µM
CCn1cc(C(=O)O)c(=O)c2cc(F)c(N3CCNCC3)nc21 [ENOXACIN]	> 10 µM

We now examine a further compound.
State the measured AC50 (Alpha-2A adrenergic receptor (Homo sapiens, UniProt P08913)) of CNCC[C@H](Oc1cccc2ccccc12)c1cccs1 [DULOXETINE]
> 10 µM

* * *

tested-on: Beta-2 adrenergic receptor (Homo sapiens)
Sequence (P07550 whole entry): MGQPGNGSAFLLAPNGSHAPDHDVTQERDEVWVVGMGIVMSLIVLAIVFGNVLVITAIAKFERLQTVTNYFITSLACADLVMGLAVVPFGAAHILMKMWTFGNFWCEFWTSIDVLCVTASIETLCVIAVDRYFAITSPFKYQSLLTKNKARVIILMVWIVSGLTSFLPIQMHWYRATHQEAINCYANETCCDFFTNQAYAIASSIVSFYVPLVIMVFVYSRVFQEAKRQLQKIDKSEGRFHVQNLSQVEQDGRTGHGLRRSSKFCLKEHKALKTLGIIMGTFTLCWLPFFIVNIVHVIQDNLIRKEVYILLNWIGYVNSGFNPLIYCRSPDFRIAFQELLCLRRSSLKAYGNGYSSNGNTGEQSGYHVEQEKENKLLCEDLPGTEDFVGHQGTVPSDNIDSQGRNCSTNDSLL
Below, each entry is listed alongside its reported AC50.

# annotated cases, reported AC50 shown
CCc1oc2ccccc2c1C(=O)c1cc(Br)c(O)c(Br)c1	> 30 µM
COc1cc2nccc(Oc3ccc(NC(=O)Nc4cc(C)on4)c(Cl)c3)c2cc1OC	> 3 µM
CCCCNc1ccc(C(=O)OCCN(C)C)cc1	> 10 µM

Quote Beta-2 adrenergic receptor (Homo sapiens) AC50 for entry CC(C)OC(=O)C(C(=O)OC(C)C)=C1SC=CS1 [MALOTILATE] .
> 30 µM

Give Beta-2 adrenergic receptor (Homo sapiens) AC50 for the following compound: "CC(=O)OCC(CCn1cnc2cnc(N)nc21)COC(C)=O"
> 10 µM

Tell me its AC50 on Beta-2 adrenergic receptor (Homo sapiens): Nc1nc2c(c(=O)[nH]1)N(C=O)C(CNc1ccc(C(=O)N[C@@H](CCC(=O)O)C(=O)O)cc1)CN2 (stereo partly drawn)
> 30 µM

* * *

tested-on: Histamine H2 receptor (Homo sapiens)
Sequence (P25021 whole entry): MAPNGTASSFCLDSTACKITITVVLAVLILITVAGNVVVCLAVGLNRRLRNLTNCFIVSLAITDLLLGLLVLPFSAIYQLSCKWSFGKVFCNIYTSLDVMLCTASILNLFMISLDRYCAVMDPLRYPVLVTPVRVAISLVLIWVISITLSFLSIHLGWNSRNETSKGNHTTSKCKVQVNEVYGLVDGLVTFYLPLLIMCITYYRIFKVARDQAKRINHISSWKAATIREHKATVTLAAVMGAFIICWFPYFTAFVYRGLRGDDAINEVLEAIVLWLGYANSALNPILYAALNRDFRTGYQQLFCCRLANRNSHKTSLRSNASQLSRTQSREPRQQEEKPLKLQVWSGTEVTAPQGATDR
Format: functional, cell-based
attribute-measured: AC50

For orientation, consider the following solved cases.
CC(C)=CCOc1ccc(/C=C/C(=O)c2ccc(OCC=C(C)C)cc2OCC(=O)O)cc1 [SOFALCONE]	> 30 µM
CC(=O)OCC[N+](C)(C)C [ACETYLCHOLINE]	> 10 µM

From here, focus on the item given below.
Fill: AC50 (Histamine H2 receptor (Homo sapiens)) for this compound CC(C)(C)NCC(O)c1cc(Cl)c(N)c(Cl)c1 (stereo not given) [CLENBUTEROL]
> 30 µM

* * *

tested-on: Prostaglandin G/H synthase 1 (Rattus norvegicus, UniProt Q63921)
Sequence (Q63921 whole entry): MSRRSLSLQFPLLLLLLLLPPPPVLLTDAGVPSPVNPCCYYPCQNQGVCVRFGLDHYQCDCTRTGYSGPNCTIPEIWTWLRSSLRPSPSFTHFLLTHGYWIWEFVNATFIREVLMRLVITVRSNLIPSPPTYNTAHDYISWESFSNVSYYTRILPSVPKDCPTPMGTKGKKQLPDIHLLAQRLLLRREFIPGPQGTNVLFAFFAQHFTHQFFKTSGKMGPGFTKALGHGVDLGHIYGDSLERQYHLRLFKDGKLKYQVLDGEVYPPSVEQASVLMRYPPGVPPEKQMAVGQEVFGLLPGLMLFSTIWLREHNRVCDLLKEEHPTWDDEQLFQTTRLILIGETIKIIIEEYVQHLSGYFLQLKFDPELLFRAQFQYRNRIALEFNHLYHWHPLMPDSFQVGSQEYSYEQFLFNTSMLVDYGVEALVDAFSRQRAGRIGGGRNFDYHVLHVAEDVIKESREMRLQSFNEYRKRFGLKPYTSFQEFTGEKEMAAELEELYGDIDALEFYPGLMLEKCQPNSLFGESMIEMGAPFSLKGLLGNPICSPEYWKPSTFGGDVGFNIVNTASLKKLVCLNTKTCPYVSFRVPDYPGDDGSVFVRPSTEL
Assay type: functional
attribute-measured: AC50 (nM)
Report the value in nM with no unit label.

// worked examples, AC50 included
CCCCC[C@H](O)/C=C/[C@H]1[C@H](O)CC(=O)[C@@H]1C/C=C\CCCC(=O)O	15000
CCOC(=O)NNc1ccc(N(CC)CC(C)O)nn1 (centres undefined)	500

Please turn your attention to the following entry.
Given "CN(C)c1cc(NC(=O)CNC(C)(C)C)c(O)c2c1C[C@H]1C[C@H]3[C@H](N(C)C)C(O)=C(C(N)=O)C(=O)[C@@]3(O)C(O)=C1C2=O" , report its AC50 on Prostaglandin G/H synthase 1 (Rattus norvegicus, UniProt Q63921).
160
